Value source: patent US10544099B2

Recorded IC50 values (human IDO1 (Homo sapiens, UniProt P14902)) are given below.

Molecule | Reported
Cc1ccc(OC(=O)N[C@H](C)[C@H]2CC[C@@H](c3ccnc4ccc(F)cc43)CC2)cc1 | < 250 nM

Sample O=C(Nc1ccc(Cl)cc1)NC1CC12CCC(c1ccnc3ccc(F)cc13)CC2 (racemic) , system: human IDO1 (Homo sapiens, UniProt P14902). Its IC50 is < 2000 nM

Sample C[C@@H](NC(=O)Nc1ccc(F)cc1)[C@H]1CC[C@@H](c2ccnc3ccc(F)cc32)CC1 , system: human IDO1 (Homo sapiens, UniProt P14902). Its IC50 is < 50 nM

Sample CC[C@@H](NC(=O)Nc1ccc(Cl)cc1)[C@H]1CC[C@H](Oc2ccnc3ccccc23)CC1 (racemic) , system: human IDO1 (Homo sapiens, UniProt P14902). Its IC50 is < 50 nM
